test system: Staph. aureus (Meth-Res) A-15097; test: MIC, tube dilution, Staphylococcus aureus A15097 (Meth-Res); type: cell-based; conditions: Staphylococcus aureus, Staph. aureus A15097 (Meth-Res); overnight 37° C.; read-out: Minimum Inhibitory Concentration (M.I.C.)
log10 of MIC reference
measurement_name: log10 of MIC (log10 of the value in µg/mL)

>  <compound>
CC1=C(C(=O)O)N2C(=O)[C@@H]([C@H](C)O)[C@H]2S1 (relative stereo) [Example 61]

>  <target_or_system>
Staph. aureus (Meth-Res) A-15097

>  <log10 of MIC>
0.30

$$$$
>  <compound>
O=C(O)C1=C(Cn2cnnn2)SC2CC(=O)N12 (stereo not drawn) [Example 76]

>  <target_or_system>
Staph. aureus (Meth-Res) A-15097

>  <log10 of MIC>
0.90

$$$$
>  <compound>
C[C@@H](O)[C@H]1C(=O)N2C(C(=O)O)=C(CN)S[C@H]12 (relative stereo) [Example 62]

>  <target_or_system>
Staph. aureus (Meth-Res) A-15097

>  <log10 of MIC>
-0.30

$$$$
>  <compound>
CCC1=C(C(=O)O)N2C(=O)C[C@H]2S1 [Preparation 10, 2-Ethylpenem-3-carboxylic Acid]

>  <target_or_system>
Staph. aureus (Meth-Res) A-15097

>  <log10 of MIC>
-0.30

$$$$
>  <compound>
CC1=C(C(=O)O)N2C(=O)C(C(O)c3ccccc3)C2S1 (stereo not drawn) [Example 4]

>  <target_or_system>
Staph. aureus (Meth-Res) A-15097

>  <log10 of MIC>
2.10

$$$$
>  <compound>
CC1=C(C(=O)O)N2C(=O)[C@@H](CO)[C@H]2S1 (relative stereo) [Example 68]

>  <target_or_system>
Staph. aureus (Meth-Res) A-15097

>  <log10 of MIC>
1.80

$$$$
>  <compound>
NCc1ccc(C2=C(C(=O)O)N3C(=O)CC3S2)cc1 (stereo not drawn) [Example 74]

>  <target_or_system>
Staph. aureus (Meth-Res) A-15097

>  <log10 of MIC>
1.51

$$$$
>  <compound>
N[C@H]1C[C@H](C2=C(C(=O)O)N3C(=O)C[C@H]3S2)C1 [Example 75]

>  <target_or_system>
Staph. aureus (Meth-Res) A-15097

>  <log10 of MIC>
0.60

$$$$
>  <compound>
NCCCC1=C(C(=O)O)N2C(=O)CC2S1 (stereo not drawn) [Example 51, 2-(γ-Aminopropyl)penem-3-carboxylic Acid]

>  <target_or_system>
Staph. aureus (Meth-Res) A-15097

>  <log10 of MIC>
1.80

$$$$

All values here come from patent US4272437A.
